B1: Pistol ribozyme (parent)
chain: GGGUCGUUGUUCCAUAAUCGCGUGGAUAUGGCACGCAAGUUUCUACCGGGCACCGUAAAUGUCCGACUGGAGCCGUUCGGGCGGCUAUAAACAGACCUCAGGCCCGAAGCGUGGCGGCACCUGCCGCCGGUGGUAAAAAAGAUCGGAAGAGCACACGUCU

# Variants of: B1
# MEASUREMENT_PROTOCOL: aptazyme ON/OFF ratio, guanine; higher = stronger switching; co-transcriptional cleavage with and without guanine
aptazyme ON/OFF ratio overview

Input line: // lookup aptazyme ON/OFF ratio for U8C U10A U11C C13U
Output line: 1.03

Input line: Return reported aptazyme ON/OFF ratio; argument: U8G G9U U10C U11C C13A
Output line: 1.04

Input line: Need aptazyme ON/OFF ratio of U7G U8G G9U U10C U11G C12A C13U , thanks.
Output line: 1.28

Input line: // aptazyme ON/OFF ratio lookup, key: U8G U10C U11A C12G
Output line: 1.26

Input line: Requested read-out: aptazyme ON/OFF ratio. Entry: U7A U8C G9C C13A
Output line: 1.07

Input line: Suppose we examine the variant G9C U10A U11A ; what aptazyme ON/OFF ratio value has been reported?
Output line: 2.14

Input line: // lookup aptazyme ON/OFF ratio for U8A U10G U11C C12A C13G
Output line: 1.14

Input line: Which aptazyme ON/OFF ratio is reported for this variant? U7G G9C U11A C13A
Output line: 1.41

We next turn to a different variant, shown below.
Input line: Suppose we examine the variant U7A U8A G9C U10A U11G C12U C13A ; what aptazyme ON/OFF ratio value has been reported?
Output line: 1.17
